The molecules below each have a reported Ki tested on Cathepsin S (Homo sapiens); the values come from various publications.

# Structure String, Ki
data = [
    ("O=C(NCCNc1ccc(F)cc1)[C@H](CC1CCCCC1)Nc1nc2ccc(Cl)cc2s1", "< 1000 nM"),
    ("CCCCC(F)(F)C[C@H](N[C@@H](c1ccc(F)cc1)C(F)(F)F)C(=O)NC1(C#N)CC1", "< 20 nM"),
    ("CCC(=O)N[C@@H](CC1(C)CCCC1)C(=O)NC1(C(=O)C(N)=O)CCC1", "4.9 nM"),
]

Specify reported Ki for the molecule shown: CC(C)(C)C[C@H](Nc1nc2ccccc2o1)C(=O)N[C@H](CN1CCc2cc(F)ccc21)CS(C)(=O)=O < 100 nM

###

The compounds below each have a reported Ki tested on Cathepsin S (Homo sapiens, UniProt P25774); the values come from various publications.

# Compound, Ki
records = [
    ("C[C@@H](CN1CCc2cc(F)ccc21)NC(=O)O[C@@H](CC1CCCC1)Cn1cnc2cc(Cl)c(Cl)cc21", "< 100 nM"),
    ("COC1OC(=O)C[C@@H]1NC(=O)[C@H](CC1CCCCC1)NC(=O)c1ccc(-c2cccc(F)c2)o1 (stereo partly drawn)", "< 1000 nM"),
    ("Cc1sc(N[C@@H](CC2CCCCC2)C(=O)NCCN2CCc3cc(F)ccc32)nc1-c1ccccc1", "< 10000 nM"),
    ("CC(C)(C)C[C@H](Nc1cnccn1)C(=O)NCCN1CCc2cc(F)ccc21", "< 10000 nM"),
    ("C[C@@H](CNc1ccc(OC(F)(F)F)cc1)NC(=O)[C@H](CC1CC1)Nc1nc2cccc(Cl)c2o1", "< 100 nM"),
]

Shift focus to the following entry.
Specify reported Ki for the compound shown: C[C@@H](CN1CCc2cc(F)ccc21)NC(=O)O[C@H](CN1CCOCC1)CC(C)(C)C < 1000 nM

###

pKi: −log10 of the molar value.
The molecules below each have a reported pKi tested on Cathepsin S (Homo sapiens); the values come from various publications.

Consider the worked cases shown below.
# Molecule, pKi
data = [
    ("C[C@@H](CNc1ccc(OC(F)(F)F)cc1)NC(=O)[C@H](CC(C)(C)C)Nc1nc2cccc(Cl)c2o1", "> 7.00"),
    ("CC(C)(C)C[C@@H](Cn1cnc2cc(Cl)c(Cl)cc21)OC(=O)N[C@@H](CO)CN1CCc2cc(F)ccc21", "> 7.00"),
    ("O=C1C[C@H](NC(=O)[C@H](CC2CCCCC2)NC(=O)OCc2ccccc2)C(OCc2ccccc2)O1 (some centres unmarked)", "> 7.00"),
    ("CC(C)(C)C[C@H](Nc1nc2ccccc2o1)C(=O)N[C@@H](CCS(C)(=O)=O)CN1CCc2cc(F)ccc21", "> 7.00"),
]

Shift focus to the following entry.
Specify reported pKi for the molecule shown: CC(C)CC(F)(F)C[C@H](N[C@@H](c1ccc(F)cc1)C(F)(F)F)C(=O)NC1(C#N)CC1 > 7.70
